Origin of values: patent US10138255B2

Reported EC50 is given for each of the following compounds.
System: HIV-1 (H9IIIB strain)
Assay: Cell-Based HIV Infection Assay Using a Reporter (MT4-GFP cells)
Conditions: Human immunodeficiency virus 1, inflection point (IP) of viral growth inhibition; MT4-GFP cells infected with HIV-1 H9IIIB; 50% normal human serum; mean of at least two independent experiments; read-out: Cell Based IP (50% NHS)
Procedure: Cell-Based HIV Infection Assay Using a Reporter (“Cell-Based”): MT4-GFP cells contain a stably integrated HIV long terminal repeat promoter directing the transcription of green fluorescent protein (GFP). […] Infected cells were quantified at both 24 and 48 h post incubation using an Acumen eX3 plate reader. Viral reproductive ratio (R0) was determined using the number of infected cells at 48 h divided by the number of infected cells at 24 h. […]

compound	EC50
CCO[C@H]1CC[C@H]([C@H](c2ccc(Cl)cc2)[C@H](N)C(=O)Nc2cccc(F)c2CC[C@H]2CN[C@@H]3CCCS(=O)(=O)N2C3)CC1 [Example 6]	6.2 nM
CC1(C)CC([C@H](c2ccc(Cl)cc2)[C@H](NCCO)C(=O)N[C@H]2CCC[C@@H]2CC[C@H]2CN[C@@H]3CCCS(=O)(=O)N2C3)CCO1 (some centres unmarked) [Example 231]	310 nM
NC(C(=O)Nc1cccc(F)c1CC[C@H]1CN[C@@H]2CCCS(=O)(=O)N1C2)[C@@H](c1ccc(Cl)cc1)[C@H]1CC[C@H](O)CC1 (some centres unmarked) [Example 217]	13 nM
CC(C)Oc1ncc([C@H](c2ccc(Cl)cc2)[C@H](N)C(=O)Nc2cccc(F)c2CC[C@H]2CN[C@@H]3CCCS(=O)(=O)N2C3)cn1 [Example 247]	7.2 nM
N[C@H](C(=O)Nc1cccc(F)c1CCC1CNC2CCCS(=O)(=O)N1C2)[C@@H](c1ccc(F)cc1)c1cc(F)cc(F)c1 (some centres unmarked) [Example 1]	2.9 nM
CC(F)(F)c1ccc([C@H](c2ccc(Cl)cc2)[C@H](N)C(=O)Nc2cncc(F)c2CC[C@H]2CN[C@@H]3CCCS(=O)(=O)N2C3)cn1 [Example 246]	19 nM
CO[C@H]1CC[C@H]([C@H](c2ccc(Cl)cc2)[C@H](N)C(=O)Nc2cccc(F)c2CC[C@H]2CN[C@@H]3CCCS(=O)(=O)N2C3)CC1 [Example 7]	3.1 nM
COC(=O)N[C@H](C(=O)Nc1cccc(F)c1CC[C@H]1CN[C@@H]2CCCS(=O)(=O)N1C2)[C@@H](c1ccc(Cl)cc1)C1CCC(C(F)(F)F)OC1 (some centres unmarked) [Example 273]	14 nM
N[C@H](C(=O)N[C@H]1CCC[C@@H]1CC[C@H]1CN[C@@H]2CCCS(=O)(=O)N1C2)[C@H](c1cncc(C(F)(F)F)c1)c1ccc(Cl)c(F)c1 [Example 76]	30 nM
N[C@H](C(=O)N[C@H]1CCCC[C@@H]1CC[C@H]1CN[C@@H]2CCCS(=O)(=O)N1C2)[C@@H](c1ccc(F)cc1)C1CCOCC1 [Example 156]	200 nM
COC(=O)N[C@H](C(=O)Nc1cc(F)ccc1CC[C@H]1CN[C@@H]2CCCS(=O)(=O)N1C2)[C@@H](c1ccc(F)cc1)C1C[C@@H](C)O[C@@H](C)C1 (some centres unmarked) [Example 30]	10 nM
